system: platelets; assay: Agonist-induced platelet granule secretion / activation (P-selectin expression by flow cytometry; ADP/ATP release); format: cell-based, human; conditions: Homo sapiens, Platelet, agonists ADP and PMA; read-out: IC50 ADP- and PMA-induced activation

compound	IC50
CC(=O)OC(CC(=O)c1ccc(Cl)cc1Cl)C(Cl)(Cl)Cl (stereo not shown)	~200 µM

====

system: platelets; experiment: Platelet aggregation (aggregometer); assay type: cell-based, human; conditions: Homo sapiens, Platelet; agonist Epinephrine; read-out: IC50 Platelet Aggregation Induced by Epinephrine
pIC50: −log10 of the molar value.
measured property: pIC50

chemical string	tested target	measured property	value measured
CCCCCn1c2c(c(=N)c3ccccc31)CCC2	platelets	pIC50	5.30

====

test system: platelets; assay: Agonist-induced platelet granule secretion / activation (P-selectin expression by flow cytometry; ADP/ATP release); format: cell-based, human; details: Homo sapiens, Platelet, agonist PMA; read-out: IC50s of inhibition of platelet granule secretion induced with PMA
pIC50: −log10 of the molar value.
Reported pIC50 values are given for each entry in this list.

molecule	tested target	lt gt eq	pIC50
Cn1cc(/C=N/NC(N)=O)c2ccccc21	platelets	=	3.00
O=C(CN1CCOCC1)N1c2ccccc2Sc2ccc(C(F)(F)F)cc21	platelets	=	4.07
CC(=O)OC(CC(=O)c1ccc(Cl)cc1Cl)C(Cl)(Cl)Cl (centres unmarked)	platelets	=	3.70
CCOC(=O)C1(C2(O)C(=O)c3ccccc3C2=O)CCCC1=O (centres unmarked)	platelets	<	3.00
Nc1cc2cccnc2c2ncccc12 [[1,10]Phenanthroline-5-ylamine]	platelets	<	3.00

====

System: platelets
Test: Agonist-induced platelet granule secretion / activation (P-selectin expression by flow cytometry; ADP/ATP release)
Assay type: cell-based, human
Settings: agonist ADP; read-out: IC50s of inhibition of platelet granule secretion induced with ADP
Procedure: In order to monitor ATP release, a cocktail of 100 μM SFLLR (synthesized using solid phase Fmoc chemistry on an Applied Biosystems model 430A peptide synthesizer) and 3 mg/ml of luciferin/luciferase (Sigma, St. Louis, Mo.) in a volume of 10 μl is added to 20 μl of PRP. Samples are immediately analyzed for luminescence. Activated platelets supply the ATP necessary for luminescence of the luciferin/luciferase assay. […]
pIC50: −log10 of the molar value.
measured property: pIC50

compound	tested target	measured property	value measured
Nc1cc2cccnc2c2ncccc12 [[1,10]Phenanthroline-5-ylamine]	platelets	pIC50	4.00

====

system: platelets; assay: Agonist-induced platelet granule secretion / activation (P-selectin expression by flow cytometry; ADP/ATP release); assay type: cell-based, human; conditions: Homo sapiens, Platelet, agonist U46619; read-out: IC50 P-Selectin Expression Induced by U46619
pIC50: −log10 of the molar value.

chemical string	pIC50
CCCCCn1c2c(c(=N)c3ccccc31)CCC2	3.40
